Hello, the source for this data is paper PMC9398005, in case you need it.

Target Under Test: Drosophila Su(H) (98-523) K132M (Drosophila, UniProt P28159 98-523, K132M | R155T)
Sequence (P28159 98-523 K132M/R155T/N281G): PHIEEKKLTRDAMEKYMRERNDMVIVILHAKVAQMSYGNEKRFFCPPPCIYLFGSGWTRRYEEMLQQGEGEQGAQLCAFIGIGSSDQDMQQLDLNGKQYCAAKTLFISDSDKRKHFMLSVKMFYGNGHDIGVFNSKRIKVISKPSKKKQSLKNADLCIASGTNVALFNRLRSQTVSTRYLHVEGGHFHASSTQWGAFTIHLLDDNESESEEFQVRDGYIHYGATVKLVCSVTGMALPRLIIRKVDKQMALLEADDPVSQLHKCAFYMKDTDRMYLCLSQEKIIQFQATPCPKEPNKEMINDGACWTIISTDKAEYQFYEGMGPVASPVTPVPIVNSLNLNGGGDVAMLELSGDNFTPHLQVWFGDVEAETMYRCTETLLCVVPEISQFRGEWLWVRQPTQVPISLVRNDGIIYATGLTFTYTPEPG
Test Description: ITC
Measure: pKd
FYI, pKd means -log10 of a concentration in mol per litre.

# input Need pKd, item VLSTQRKRAHGVTWFPEGFRAPAAVMSR [Drosophila Notch RAM peptide (residues 1763-1790)]
# output 6.97
